Data origin, for the record: ChEMBL document CHEMBL1147905

targetUnderTest: Thyroid hormone receptor alpha (Homo sapiens) (UniProt P10827)
Sequence (whole entry): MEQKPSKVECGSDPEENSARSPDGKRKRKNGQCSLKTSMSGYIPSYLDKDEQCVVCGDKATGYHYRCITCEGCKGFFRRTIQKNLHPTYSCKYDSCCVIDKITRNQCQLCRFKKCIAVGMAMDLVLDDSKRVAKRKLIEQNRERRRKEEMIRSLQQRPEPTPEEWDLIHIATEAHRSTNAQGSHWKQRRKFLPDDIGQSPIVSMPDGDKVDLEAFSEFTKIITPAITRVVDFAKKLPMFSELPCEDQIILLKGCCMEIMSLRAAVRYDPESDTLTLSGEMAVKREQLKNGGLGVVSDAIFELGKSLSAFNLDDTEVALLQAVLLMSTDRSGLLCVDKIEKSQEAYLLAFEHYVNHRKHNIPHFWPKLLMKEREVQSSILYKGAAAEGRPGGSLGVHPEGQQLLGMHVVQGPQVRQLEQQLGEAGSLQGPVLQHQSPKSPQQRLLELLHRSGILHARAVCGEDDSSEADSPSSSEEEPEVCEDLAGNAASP
experimentalProtocol: Antagonist activity at human thyroid hormone receptor alpha-1 expressed in COS1 cells by transactivation assay after 40 hrs
Type: functional, cell-based
particulars: COS-1
Activity calls are given as the source filed them. The rule behind the calls is not given here.
Reply using exactly one outcome from active, inactive

| compound | className |
| --- | --- |
| Cc1cc(CC2SC(=O)NC2=O)cc(C)c1N(CC1CC1)c1ccc(O)c(C(C)C)c1 (configuration not stated) | active |
| Cc1cc(CC2SC(=O)NC2=O)cc(C)c1N(CC1CCCCC1)c1ccc(O)c(C(C)C)c1 (configuration not stated) | active |
| Cc1cc(CC2SC(=O)NC2=O)cc(C)c1N(CC(C)C)c1ccc(O)c(C(C)C)c1 (configuration not stated) | active |
| CCCCCCN(c1ccc(O)c(C(C)C)c1)c1c(C)cc(CC2SC(=O)NC2=O)cc1C (configuration not stated) | active |
| Cc1cc(CC2SC(=O)NC2=O)cc(C)c1N(Cc1ccccc1)c1ccc(O)c(C(C)C)c1 (configuration not stated) | active |
| CC(C)=CCN(c1ccc(O)c(C(C)C)c1)c1c(C)cc(CC2SC(=O)NC2=O)cc1C (configuration not stated) | active |

Now consider a different compound.
*Q* Query: recorded result category for Cc1cc(CC2SC(=O)NC2=O)cc(C)c1N(C)c1ccc(O)c(C(C)C)c1 (configuration not stated) in this test
*A* inactive
